src = ChEMBL document CHEMBL3988442

Species: Homo sapiens
Assay: To identify inhibition of the IFN signalling (Jak-Stat) pathway via expression of an eGFP reporter gene under the control of an IFN-stimulated response element (ISRE) containing MxA promoter.
Type: functional
Set-up: scale not given: direction of the effect not stated beside the values
Settings: 30 µM
Assign Percent Effect to each entry below.
One number for each entry, in %.

Observe how each entry below is paired with its result.
>>> value("c1cnnc(N2CCCC(NCc3nc(C4CC4)no3)C2)c1 (stereo unspecified)")
-1.78
>>> value("O=C(Cc1ccc(O)c(Cl)c1)N1CCCCC1CCn1cccn1 (stereo unspecified)")
0.632
>>> value("Cc1nc(C)n(C2CCCN(C(=O)CCCOc3ccccc3)C2)n1 (stereo unspecified)")
-22.8
>>> value("COc1cccc(CN2CCN(C(=O)CN3CCOCC3)CC2)n1")
7.19
>>> value("Cc1cc(C)c(CNC(=O)N2CCN(c3ncccn3)CC2)c(=O)[nH]1")
2.72
>>> value("Cn1ccnc1CN1CCCCC1Cn1cccn1 (stereo unspecified)")
4.51
>>> value("CN(C)C(=O)CC1CC2(CCN(C(=O)N(C)C)CC2)Oc2ccccc21 (stereo unspecified)")
4.7
>>> value("Cc1nc(CNCC2CCCN2c2cccnn2)no1 (stereo unspecified)")
-2.13
>>> value("O=C(CCc1c[nH]cn1)N1CC[C@@H](c2ccc3ccccc3c2)[C@H](O)C1")
15.3
>>> value("NC(=O)C1CCN(c2nc3nccc(-c4ccccc4)c3c(=O)[nH]2)CC1")
5.49

Exercise: If you can, please state the reported Percent Effect value of O=C(c1ccco1)N1CCOCC2(C1)CN(c1ccccc1)C(=O)CO2 (stereo unspecified) .
Solution: 5.08
